measurement description: chemical genetic growth profiling, strain panel (AID 1159580);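 note: tested at 20 µM; growth read once vehicle control cultures reached saturation at 30 °C; 1 = growth at the plate median or of vehicle wells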
particulars: S. cerevisiae deletion strains, growth OD, locus YFR003C, strain YPI1, stronger effect = lower value
Out of some 5,500 compounds screened, about 2,000 (36%) were called active. Inconclusive results (about 18%) are left out. This is one part of the list.
measurement kind: normalized growth

Value of normalized growth reported for the molecule C=CCOc1ccc(/C=C/[N+](=O)[O-])cc1 is 0.0875 (active)

Value of normalized growth reported for the molecule CC(=O)Nc1ccc(/C=C/[N+](=O)[O-])cc1 is 0.982 (inactive)

Value of normalized growth reported for the molecule O=[N+]([O-])/C=C/c1ccsc1 is 0.126 (active)

Value of normalized growth reported for the molecule O=[N+]([O-])/C=C/c1ccc(F)cc1 is 0.0906 (active)

Value of normalized growth reported for the molecule Cc1cccc(Cl)c1/C=N\NC(N)=S is 0.899 (active)

Value of normalized growth reported for the molecule O=C(NC(=O)c1c(F)cccc1Cl)OCc1ccc(Cl)cc1Cl is 0.98 (inactive)

Value of normalized growth reported for the molecule N#CC(C#N)=C/C=C(/Sc1ccc(F)c(Cl)c1)c1ccc(Cl)cc1 is 0.951 (inactive)

Value of normalized growth reported for the molecule S=C(N/N=C\c1ccc(Cl)cc1)N/N=C\c1ccc(Cl)cc1 is 0.965 (inactive)

Value of normalized growth reported for the molecule CCOc1ccc(/C=C(\C)[N+](=O)[O-])cc1OC is 0.978 (inactive)

Value of normalized growth reported for the molecule FC(F)(F)c1cccc(NC(=S)Nc2csc(C(F)(F)F)c2-c2ccccc2)c1 is 0.997 (inactive)

Value of normalized growth reported for the molecule O=C(c1ccccc1)c1cc(Cl)ccc1NC(=S)Nc1ccc(F)cc1 is 0.988 (inactive)

Value of normalized growth reported for the molecule CC(=O)Nc1ccc([N+](=O)[O-])cc1[N+](=O)[O-] is 0.926 (inactive)

* * *

measurement description: chemical genetic growth profiling, strain panel (AID 1159580);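 note: tested at 20 µM; growth read once vehicle control cultures reached saturation at 30 °C; 1 = growth at the plate median or of vehicle wells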
particulars: S. cerevisiae deletion strains, growth OD, locus YDL192W, strain arf1, stronger effect = lower value
Hit rate of the full screen: of about 5,500 compounds, about 2,000 (36%) were called active. Inconclusive results (about 18%) are left out. The list shows a part of the results.
Can you tell me normalized growth for the items I'm about to list?

Value of normalized growth reported for the compound CN1C(CC(=O)c2ccccc2)CCCC1CC(O)c1ccccc1 (stereo not given) is 0.991 (inactive)

Value of normalized growth reported for the compound CO[C@H]1/C=C/O[C@@]2(C)Oc3c(C)c(O)c4c(O)c(c(/C=N/N5CCN(C)CC5)c(O)c4c3C2=O)NC(=O)/C(C)=C\C=C\C(C)[C@H](O)[C@@H](C)[C@@H](O)[C@@H](C)[C@@H](OC(C)=O)[C@@H]1C (stereo not given in full) is 1.02 (inactive)

Value of normalized growth reported for the compound COc1ccccc1OCCNCC(O)COc1cccc2[nH]c3ccccc3c12 (stereo not given) is 1.02 (inactive)

Value of normalized growth reported for the compound CCC(Cc1c(I)cc(I)c(N)c1I)C(=O)O (stereo not given) is 0.997 (inactive)

Value of normalized growth reported for the compound Nc1ncn([C@@H]2O[C@H](CO)[C@@H](O)[C@H]2O)c(=O)n1 is 0.994 (inactive)

Value of normalized growth reported for the compound CN(C)CCOC(C)(c1ccccc1)c1ccccn1 (stereo not given) is 0.99 (inactive)

Value of normalized growth reported for the compound CC/C(=C(\c1ccccc1)c1ccc(OCCN(C)C)cc1)c1ccccc1 is 0.062 (active)

Value of normalized growth reported for the compound O=C1O[C@H](C(O)CO)C(O)=C1O (stereo not given in full) is 0.977 (inactive)

Value of normalized growth reported for the compound CC(C)NCC(O)c1ccc(O)c(O)c1 (stereo not given) is 1 (inactive)

Value of normalized growth reported for the compound COC(=O)Oc1ccccc1C(=O)O is 1.02 (inactive)

Value of normalized growth reported for the compound O=C(OC1Cc2c(O)cc(O)cc2OC1c1cc(O)c(O)c(O)c1-c1c(C2Oc3cc(O)cc(O)c3CC2OC(=O)c2cc(O)c(O)c(O)c2)cc(O)c(O)c1O)c1cc(O)c(O)c(O)c1 (stereo not given) is 0.985 (inactive)

Value of normalized growth reported for the compound Oc1ccc(Cl)c2cccnc12 is 0.0648 (active)

Value of normalized growth reported for the compound O=C(O[C@@H]1Cc2c(O)cc(O)cc2O[C@@H]1c1cc(O)c(O)c(O)c1-c1c([C@H]2Oc3cc(O)cc(O)c3C[C@H]2O)cc(O)c(O)c1O)c1cc(O)c(O)c(O)c1 is 0.553 (active)

Value of normalized growth reported for the compound COc1ccc(C(Cl)=C(c2ccc(OC)cc2)c2ccc(OC)cc2)cc1 is 1.02 (inactive)

Value of normalized growth reported for the compound CCCCC1=NC2(CCCC2)C(=O)N1Cc1ccc(-c2ccccc2-c2nn[nH]n2)cc1 is 0.985 (inactive)

Value of normalized growth reported for the compound O=C(O)c1ccccc1Nc1cccc(C(F)(F)F)c1 is 0.974 (inactive)

Value of normalized growth reported for the compound CCN(CC)CCOc1ccc2c(c1)C(=O)c1cc(OCCN(CC)CC)ccc1-2 is 0.984 (inactive)

Value of normalized growth reported for the compound Oc1c(Br)cc(Br)c2cccnc12 is 0.0671 (active)

Value of normalized growth reported for the compound Oc1c(Cl)cc(Cl)c2cccnc12 is 0.0659 (active)

Value of normalized growth reported for the compound OC[C@@H](O)[C@@H](O[C@@H]1O[C@H](CO)[C@@H](O)[C@H](O)[C@H]1O)[C@H](O)[C@@H](O)CO is 1.01 (inactive)

* * *

measurement description: chemical genetic growth profiling, strain panel (AID 1159580);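 note: tested at 20 µM; growth read once vehicle control cultures reached saturation at 30 °C; 1 = growth at the plate median or of vehicle wells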
particulars: S. cerevisiae deletion strains, growth OD, locus YLR320W, strain mms22
In all, about 5,500 compounds went through this assay and about 2,000 (36%) were called active. Roughly 18% stayed inconclusive and do not appear here. Rule as the data show it: active = normalized growth mostly below about 0.91 (no sharp cut-off); inconclusive = no clear call, values can overlap the other calls; inactive = mostly above about 0.92. The list shows a part of the results.
Please state which outcome applies, choosing from YES = active, NO = inactive

**Query** Write down the call the test reported for this molecule. Item: O[N+]1=CC=CCC1=S.On1ccccc1=S.[Zn]
**Result** YES

**Query** Write down the call the test reported for this molecule. Item: CC1(C)C(=O)C=C[C@@]2(C)C1=C(O)C(=O)[C@]1(C)C2CC[C@@]2(C)[C@H](c3ccoc3)C[C@H]3O[C@]321 (stereo partly drawn)
**Result** YES

**Query** Write down the call the test reported for this molecule. Item: CC(=O)O[C@@H]1C[C@@]2(C)[C@H](c3ccoc3)C[C@H]3O[C@]32[C@]2(C)C(=O)C(O)=C3C(C)(C)C(=O)C=C[C@]3(C)C12 (stereo partly drawn)
**Result** YES

**Query** Write down the call the test reported for this molecule. Item: C=C(C)C1CC=C(CO)CC1 (stereo not drawn)
**Result** NO

**Query** Write down the call the test reported for this molecule. Item: CC(=O)O[C@@H]1CC2C(C)(C)C=CC(=O)[C@]2(C)C2CC[C@@]3(C)[C@H](c4ccoc4)OC(=O)C4OC43[C@@]21C (stereo partly drawn)
**Result** NO

**Query** Write down the call the test reported for this molecule. Item: CCCCC(CC)CN1CN(CC(CC)CCCC)CC(C)(N)C1 (stereo not drawn)
**Result** YES

**Query** Write down the call the test reported for this molecule. Item: CO[C@H]1/C=C/O[C@@]2(C)Oc3c(C)c(O)c4c(O)c(c(/C=N/N5CCN(C)CC5)c(O)c4c3C2=O)NC(=O)/C(C)=C\C=C\C(C)[C@H](O)[C@@H](C)[C@@H](O)[C@@H](C)[C@@H](OC(C)=O)[C@@H]1C (stereo partly drawn)
**Result** NO

**Query** Write down the call the test reported for this molecule. Item: C[n+]1cccc(C(=O)[O-])c1
**Result** NO

* * *

measurement description: chemical genetic growth profiling, strain panel (AID 1159580);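 note: tested at 20 µM; growth read once vehicle control cultures reached saturation at 30 °C; 1 = growth at the plate median or of vehicle wells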
particulars: S. cerevisiae deletion strains, growth OD, locus YNL233W, strain BNI4, stronger effect = lower value
Hit rate of the full screen: of about 5,500 compounds, about 2,000 (36%) were called active. About 18% were inconclusive and are not listed. The list shows a part of the results.
Note to self: normalized growth under 1 means TRUE, ties and anything higher get FALSE.

**Query** Input COC(=O)[C@]1(C)CC[C@]2(C)CC[C@]3(C)C4=CCc5c(cc(O)c(O)c5C)[C@]4(C)CC[C@@]3(C)C2C1 (stereo partly specified) ; condition: normalized growth strictly below 1. Does it hold?
**Result** TRUE

**Query** Input CC(=O)O[C@@H]1C[C@@]2(C)[C@H](c3ccoc3)C[C@H]3O[C@]32[C@]2(C)C(=O)C(O)=C3C(C)(C)C(=O)C=C[C@]3(C)C12 (stereo partly specified) ; condition: normalized growth strictly below 1. Does it hold?
**Result** TRUE

**Query** Input Cc1c(O)c(O)cc2c1CC=C1[C@@]2(C)CC[C@@]2(C)C3C[C@](C)(C(=O)O)CC[C@]3(C)CC[C@]12C (stereo partly specified) ; condition: normalized growth strictly below 1. Does it hold?
**Result** TRUE

**Query** Input CC/C(=C(\c1ccccc1)c1ccc(OCCN(C)C)cc1)c1ccccc1 ; condition: normalized growth strictly below 1. Does it hold?
**Result** TRUE

**Query** Input CC(=O)OCC1(C)CCC2(C)CCC3(C)C4=CCc5c(cc(OC(C)=O)c(OC(C)=O)c5C)C4(C)CCC3(C)C2C1 (stereo unspecified) ; condition: normalized growth strictly below 1. Does it hold?
**Result** FALSE

**Query** Input CCCCC1=NC2(CCCC2)C(=O)N1Cc1ccc(-c2ccccc2-c2nn[nH]n2)cc1 ; condition: normalized growth strictly below 1. Does it hold?
**Result** FALSE

**Query** Input CC(=O)O[C@@H]1CC2C(C)(C)C(=O)CC[C@]2(C)C2CC[C@]3(C)C(=CC(=O)O[C@H]3c3ccoc3)[C@@]21C (stereo partly specified) ; condition: normalized growth strictly below 1. Does it hold?
**Result** FALSE

**Query** Input COc1cc2c(c(OC)c1OC)-c1ccc(O)c(=O)cc1[C@@H](NC(C)=O)CC2 ; condition: normalized growth strictly below 1. Does it hold?
**Result** TRUE

**Query** Input NC(=NCCC[C@H](N)C(=O)O)NC(CCC(=O)O)C(=O)O (stereo partly specified) ; condition: normalized growth strictly below 1. Does it hold?
**Result** FALSE

**Query** Input CC1(C)CC2C1(O)CCC1(C)C=CC(O)C21CO (stereo unspecified) ; condition: normalized growth strictly below 1. Does it hold?
**Result** FALSE

**Query** Input CN/C(=C\[N+](=O)[O-])NCCSCc1ccc(CN(C)C)o1 ; condition: normalized growth strictly below 1. Does it hold?
**Result** FALSE

**Query** Input Cc1ccc2cc3c(ccc4ccccc43)c3c2c1CC3 ; condition: normalized growth strictly below 1. Does it hold?
**Result** TRUE

**Query** Input O=C(O[C@@H]1Cc2c(O)cc(O)cc2O[C@@H]1c1cc(O)c(O)c(O)c1-c1c([C@H]2Oc3cc(O)cc(O)c3C[C@H]2O)cc(O)c(O)c1O)c1cc(O)c(O)c(O)c1 ; condition: normalized growth strictly below 1. Does it hold?
**Result** TRUE

**Query** Input O=[N+]([O-])c1ccc(O)c([N+](=O)[O-])c1 ; condition: normalized growth strictly below 1. Does it hold?
**Result** TRUE

**Query** Input Nc1ncn([C@@H]2O[C@H](CO)[C@@H](O)[C@H]2O)c(=O)n1 ; condition: normalized growth strictly below 1. Does it hold?
**Result** FALSE

**Query** Input CCN(CC)CCOc1ccc(/C(=C(\Cl)c2ccccc2)c2ccccc2)cc1 ; condition: normalized growth strictly below 1. Does it hold?
**Result** TRUE
